- subjectOfTest: Focal adhesion kinase 1 (Homo sapiens)
- Sequence (Q05397 whole entry): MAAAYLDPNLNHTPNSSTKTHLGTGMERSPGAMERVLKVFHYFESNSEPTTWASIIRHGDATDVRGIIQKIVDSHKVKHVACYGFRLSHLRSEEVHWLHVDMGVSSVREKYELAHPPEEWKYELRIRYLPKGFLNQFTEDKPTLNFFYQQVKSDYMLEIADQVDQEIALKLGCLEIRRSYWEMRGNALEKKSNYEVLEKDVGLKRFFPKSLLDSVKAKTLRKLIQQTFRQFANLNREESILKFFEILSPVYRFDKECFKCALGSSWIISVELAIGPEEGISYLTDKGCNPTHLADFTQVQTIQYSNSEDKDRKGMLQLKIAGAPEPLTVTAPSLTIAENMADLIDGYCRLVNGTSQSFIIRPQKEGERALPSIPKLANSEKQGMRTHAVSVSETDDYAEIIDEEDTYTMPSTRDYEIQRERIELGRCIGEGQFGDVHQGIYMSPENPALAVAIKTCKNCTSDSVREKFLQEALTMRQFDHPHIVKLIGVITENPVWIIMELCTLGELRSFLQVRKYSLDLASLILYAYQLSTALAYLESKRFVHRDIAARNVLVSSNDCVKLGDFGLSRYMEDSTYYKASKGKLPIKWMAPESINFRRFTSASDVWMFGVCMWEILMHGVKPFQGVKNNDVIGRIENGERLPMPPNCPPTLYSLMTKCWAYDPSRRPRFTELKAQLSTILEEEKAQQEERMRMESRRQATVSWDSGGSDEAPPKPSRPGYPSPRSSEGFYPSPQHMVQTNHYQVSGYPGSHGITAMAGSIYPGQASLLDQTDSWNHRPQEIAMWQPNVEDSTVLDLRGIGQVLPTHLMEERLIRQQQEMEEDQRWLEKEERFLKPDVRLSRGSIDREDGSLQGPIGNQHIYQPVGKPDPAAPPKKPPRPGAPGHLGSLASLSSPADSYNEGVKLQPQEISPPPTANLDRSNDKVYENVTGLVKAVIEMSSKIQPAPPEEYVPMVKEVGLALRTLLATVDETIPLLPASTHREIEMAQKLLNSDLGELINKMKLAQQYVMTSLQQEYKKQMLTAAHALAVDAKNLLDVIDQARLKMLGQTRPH
- testMethodNotes: Inhibition of FAK (unknown origin) by FRET-based Z'-Lyte assay
Response field label takes true (1) when IC50 is strictly below 80 nM and false (0) in all other cases.

# input Please state whether IC50 is below 80 nM for Cn1c(SCCCCCC(=O)Nc2ccccc2N)nnc1-c1ccncc1
# output true (1)

# input Please state whether IC50 is below 80 nM for Nc1ccccc1NC(=O)CCCCCSc1nnc(-c2ccncc2)n1-c1ccccc1
# output false (0)

# input Please state whether IC50 is below 80 nM for Nc1ccccc1NC(=O)c1ccc(CSc2nnc(-c3ccncc3)n2-c2ccccc2)cc1
# output false (0)

# input Please state whether IC50 is below 80 nM for CCn1c(SCc2ccc(C(=O)Nc3ccccc3N)cc2)nnc1-c1ccncc1
# output false (0)

# input Please state whether IC50 is below 80 nM for C=CCn1c(SCc2ccc(C(=O)Nc3ccccc3N)cc2)nnc1-c1ccncc1
# output true (1)

# input Please state whether IC50 is below 80 nM for O=C(NO)c1ccc(CSc2nnc(-c3ccncc3)n2-c2ccccc2)cc1
# output true (1)

# input Please state whether IC50 is below 80 nM for CCn1c(SCCCCCC(=O)Nc2ccccc2N)nnc1-c1ccncc1
# output false (0)

# input Please state whether IC50 is below 80 nM for C=CCn1c(SCCCCCC(=O)Nc2ccccc2N)nnc1-c1ccncc1
# output true (1)

# input Please state whether IC50 is below 80 nM for CCn1c(SCCCCCC(=O)NO)nnc1-c1ccncc1
# output false (0)

# input Please state whether IC50 is below 80 nM for C=CCn1c(SCCCCCC(=O)NO)nnc1-c1ccncc1
# output false (0)

# input Please state whether IC50 is below 80 nM for CCn1c(SCc2ccc(C(=O)NO)cc2)nnc1-c1ccncc1
# output false (0)

# input Please state whether IC50 is below 80 nM for O=C(O)CCCCCSc1nnc(-c2ccncc2)n1-c1ccccc1
# output true (1)

# input Please state whether IC50 is below 80 nM for C=CCn1c(SCCCCCC(=O)O)nnc1-c1ccncc1
# output false (0)

# input Please state whether IC50 is below 80 nM for C=CCn1c(SCc2ccc(C(=O)NO)cc2)nnc1-c1ccncc1
# output true (1)

# input Please state whether IC50 is below 80 nM for O=C(CCCCCSc1nnc(-c2ccncc2)n1-c1ccccc1)NO
# output false (0)

# input Please state whether IC50 is below 80 nM for Cn1c(SCCCCCC(=O)O)nnc1-c1ccncc1
# output true (1)

# input Please state whether IC50 is below 80 nM for Cn1c(SCCCCCC(=O)NO)nnc1-c1ccncc1
# output true (1)

# input Please state whether IC50 is below 80 nM for Cn1c(SCc2ccc(C(=O)NO)cc2)nnc1-c1ccncc1
# output true (1)

# input Please state whether IC50 is below 80 nM for Cn1c(SCc2ccc(C(=O)Nc3ccccc3N)cc2)nnc1-c1ccncc1
# output true (1)

# input Please state whether IC50 is below 80 nM for CCn1c(SCCCCCC(=O)O)nnc1-c1ccncc1
# output true (1)
